Attribution: patent US5912264A

# Test system: M109 lung carcinoma
# Protocol Details: Mice M109 Model (In-Vivo), median survival time % T/C
# Design: species or system mice (Balb/c x DBA/2 F1 hybrid)
# Experimental Context: Mus musculus, ip, dose 100 mg/kg, days 1, 5 and 9 or days 5 and 8 post-implant, median survival T/C x 100
# Experimental: Balb/c x DBA/2 F1 hybrid mice were implanted intraperitoneally, as described by William Rose in Evaluation of Madison 109 Lung Carcinoma as a Modelfor Screening Antitumor Drugs, Cancer Treatment Reports, 65, No. 3-4 (1981), with 0.5 mL of a 2% (w/v) brei of M109 lung carcinoma. Mice were treated with compounds under study by receiving intraperitoneal injections of various doses on either days 1, 5 and 9 post-tumor implant or days 5 and 8 post-implant. […]
Would you kindly list response vs control in vivo at 100 mg/kg for each of these molecules?
Note: unit % is implicit; provide only the numeric part.

Q. Please give the measured response vs control in vivo at 100 mg/kg for this molecule: `CC(=O)O[C@H]1C(=O)[C@@]2(C)[C@H]([C@H](OC(=O)c3ccccc3)[C@]3(O)C[C@H](OC(=O)[C@H](O)[C@@H](NC(=O)OC(C)(C)C)c4ccccc4)C(C)=C1C3(C)C)[C@]1(OC(C)=O)CO[C@@H]1[C@@H](F)[C@@H]2O`
A. 269

Q. Please give the measured response vs control in vivo at 100 mg/kg for this molecule: `CSCO[C@H]1[C@H](F)[C@H]2OC[C@@]2(OC(C)=O)[C@H]2[C@H](OC(=O)c3ccccc3)[C@]3(O)C[C@H](OC(=O)[C@H](O)[C@@H](NC(=O)c4ccccc4)c4ccccc4)C(C)=C([C@@H](OC(C)=O)C(=O)[C@@]21C)C3(C)C`
A. 147

Q. Please give the measured response vs control in vivo at 100 mg/kg for this molecule: `CC(=O)O[C@H]1C(=O)[C@@]2(C)[C@H]([C@H](OC(=O)c3ccccc3)[C@]3(O)C[C@H](OC(=O)[C@H](O)[C@@H](NC(=O)c4ccccc4)c4ccccc4)C(C)=C1C3(C)C)[C@]1(OC(C)=O)CO[C@@H]1[C@@H](Cl)[C@@H]2O`
A. 203

Q. Please give the measured response vs control in vivo at 100 mg/kg for this molecule: CC(=O)O[C@H]1C(=O)[C@@]2(C)[C@H]([C@H](OC(=O)c3ccccc3)[C@]3(O)C[C@H](OC(=O)[C@H](O)[C@@H](NC(=O)c4ccccc4)c4ccccc4)C(C)=C1C3(C)C)[C@]1(OC(C)=O)CO[C@@H]1[C@@H](O[N+](=O)[O-])[C@@H]2O [If, paclitaxel-6α-nitrate]
A. 132

Q. Please give the measured response vs control in vivo at 100 mg/kg for this molecule: `COCO[C@H]1[C@H](F)[C@H]2OC[C@@]2(OC(C)=O)[C@H]2[C@H](OC(=O)c3ccccc3)[C@]3(O)C[C@H](OC(=O)[C@H](O)[C@@H](NC(=O)c4ccccc4)c4ccccc4)C(C)=C([C@@H](OC(C)=O)C(=O)[C@@]21C)C3(C)C`
A. 162

Q. Please give the measured response vs control in vivo at 100 mg/kg for this molecule: `CO[C@H]1[C@H](F)[C@H]2OC[C@@]2(OC(C)=O)[C@H]2[C@H](OC(=O)c3ccccc3)[C@]3(O)C[C@H](OC(=O)[C@H](O)[C@@H](NC(=O)c4ccccc4)c4ccccc4)C(C)=C([C@@H](OC(C)=O)C(=O)[C@@]21C)C3(C)C`
A. 147
